Target Entity: T1, Human CD137 ECD (human)
T1 construct: entry includes C-terminal His-tag and biotin acceptor peptide; also called human CD137 extracellular domain; 4-1BB
T1 sequence (chain, as listed by the source limits assumed): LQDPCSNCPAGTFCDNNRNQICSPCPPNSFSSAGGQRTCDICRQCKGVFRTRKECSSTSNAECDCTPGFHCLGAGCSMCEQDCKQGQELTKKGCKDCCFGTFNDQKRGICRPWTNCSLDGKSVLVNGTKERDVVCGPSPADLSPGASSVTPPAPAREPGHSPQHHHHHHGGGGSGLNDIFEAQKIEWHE
Assay Notes: Biacore SPR, vs parent H183/L072
Readout: fold change of affinity (fold)
One number for each entry, in fold.

// worked examples, fold change of affinity included
| Binder | Readout | Result Unit | Measured Value |
| --- | --- | --- | --- |
| H183/L072 VL V94H (antibody, name in Kabat numbering, V domains shown, Dual-Ig) VH: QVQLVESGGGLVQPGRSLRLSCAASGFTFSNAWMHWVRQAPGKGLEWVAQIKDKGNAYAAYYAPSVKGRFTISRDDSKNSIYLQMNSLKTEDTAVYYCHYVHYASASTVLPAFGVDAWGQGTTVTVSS VL: DIVMTQSPLSLPVTPGEPASISCQASQELVHMNRNTYLHWYQQKPGQAPRLLIYKVSNRFPGVPDRFSGSGSGTDFTLKISRVEAEDVGVYYCAQGTSHPFTFGQGTKLEIK | fold change of affinity | fold | 1.8 |
| H183/L072 VL T92D (antibody, name in Kabat numbering, V domains shown, Dual-Ig) VH: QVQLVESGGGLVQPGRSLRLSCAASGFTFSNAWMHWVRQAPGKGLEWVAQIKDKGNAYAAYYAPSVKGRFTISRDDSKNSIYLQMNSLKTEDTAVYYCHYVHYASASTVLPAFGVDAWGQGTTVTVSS VL: DIVMTQSPLSLPVTPGEPASISCQASQELVHMNRNTYLHWYQQKPGQAPRLLIYKVSNRFPGVPDRFSGSGSGTDFTLKISRVEAEDVGVYYCAQGDSVPFTFGQGTKLEIK | fold change of affinity | fold | 0 |
| H183/L072 VL T31A (antibody, name in Kabat numbering, V domains shown, Dual-Ig) VH: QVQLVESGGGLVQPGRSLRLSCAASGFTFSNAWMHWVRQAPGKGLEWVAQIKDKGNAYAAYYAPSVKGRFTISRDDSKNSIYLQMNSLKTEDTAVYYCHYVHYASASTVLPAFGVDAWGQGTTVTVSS VL: DIVMTQSPLSLPVTPGEPASISCQASQELVHMNRNAYLHWYQQKPGQAPRLLIYKVSNRFPGVPDRFSGSGSGTDFTLKISRVEAEDVGVYYCAQGTSVPFTFGQGTKLEIK | fold change of affinity | fold | 0.4 |

Record fold change of affinity per entry; entries follow.
1. H183/L072 VL H34M (antibody, name in Kabat numbering, V domains shown, Dual-Ig) VH: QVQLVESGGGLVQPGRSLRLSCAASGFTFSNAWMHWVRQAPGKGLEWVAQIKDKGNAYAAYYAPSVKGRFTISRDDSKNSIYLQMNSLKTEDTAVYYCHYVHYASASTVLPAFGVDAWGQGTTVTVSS VL: DIVMTQSPLSLPVTPGEPASISCQASQELVHMNRNTYLMWYQQKPGQAPRLLIYKVSNRFPGVPDRFSGSGSGTDFTLKISRVEAEDVGVYYCAQGTSVPFTFGQGTKLEIK
2. H183/L072 VL A89H (antibody, name in Kabat numbering, V domains shown, Dual-Ig) VH: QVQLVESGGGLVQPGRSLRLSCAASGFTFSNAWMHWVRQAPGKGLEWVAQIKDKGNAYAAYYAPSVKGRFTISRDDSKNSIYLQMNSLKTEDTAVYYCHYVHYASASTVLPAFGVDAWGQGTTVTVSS VL: DIVMTQSPLSLPVTPGEPASISCQASQELVHMNRNTYLHWYQQKPGQAPRLLIYKVSNRFPGVPDRFSGSGSGTDFTLKISRVEAEDVGVYYCHQGTSVPFTFGQGTKLEIK

## Result
0
0

Source listed as patent US20210388087A1.
